biological target: ULK4 (Homo sapiens); assay: Mant-ADP FRET nucleotide binding / displacement assay; conditions: With Mg, competition with a fixed concentration of Mant-ADP
Sequence (Q96C45 4-280 limits assumed): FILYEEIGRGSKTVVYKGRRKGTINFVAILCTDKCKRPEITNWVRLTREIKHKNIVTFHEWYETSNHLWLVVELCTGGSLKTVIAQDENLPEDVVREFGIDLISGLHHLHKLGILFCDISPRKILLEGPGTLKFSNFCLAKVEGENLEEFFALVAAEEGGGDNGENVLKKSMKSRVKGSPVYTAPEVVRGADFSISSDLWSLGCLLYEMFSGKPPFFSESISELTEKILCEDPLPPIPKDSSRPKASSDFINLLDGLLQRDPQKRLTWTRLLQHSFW
measureName: Ki (µM)
Use µM as the unit, but write only the number.

Please fill in: Ki reported for Nc1ncnc2c1ncn2[C@@H]1O[C@H](COP(=O)(O)OP(=O)(O)O)[C@@H](O)[C@H]1O = 37

Please fill in: Ki reported for Nc1ncnc2c1ncn2[C@@H]1O[C@H](COP(=O)(O)OP(=O)(O)OP(=O)(O)O)[C@@H](O)[C@H]1O = 4.67

Values from paper PMC7261596
